assay: Serum pharmacokinetics after 500 mg oral bolus of 13C5-C3G (HPLC-ESI-MS/MS, non-compartmental analysis); format: in vivo, humans; details: male, human, serum, po, 500 mg, serum; single 500 mg oral 13C5-C3G; mean ± SEM; read-out: tmax
OBSERVATION TYPE: Tmax

COMPOUND | OBSERVATION TYPE | OBSERVED RESULT
COc1cc(C(=O)O)ccc1O [Vanillic acid (VA), Vanillic acid] | Tmax | 12.5 h
O=C(O)c1ccc(O)c(OC2OC(C(=O)O)C(O)C(O)C2O)c1 (centres unmarked) [PCA-3-glucuronide] | Tmax | 2.7 h
O=Cc1ccc(O)cc1 [4-Hydroxybenzaldehyde] | Tmax | 5.6 h
O=Cc1c(O)cc(O)cc1O [Phloroglucinaldehyde] | Tmax | 2.8 h
O=C(O)c1ccc(OC2OC(C(=O)O)C(O)C(O)C2O)cc1 (centres unmarked) [Benzoic acid-4-glucuronide] | Tmax | 10.9 h

====

experiment: Serum pharmacokinetics after 500 mg oral bolus of 13C5-C3G (HPLC-ESI-MS/MS, non-compartmental analysis); format: in vivo, humans; conditions: male, human; serum; trapezoidal rule; single 500 mg oral 13C5-C3G; mean ± SEM; read-out: AUC0-48
Each record here notes measured AUC(0-t).

MOLECULE | UNIT TAG | AUC(0-t)
O=C(O)c1ccc(OC2OC(C(=O)O)C(O)C(O)C2O)cc1 (stereo not shown) [Benzoic acid-4-glucuronide] | µM·h | 1.47
O=Cc1c(O)cc(O)cc1O | µM·h | 7.88
O=C(O)c1ccc(O)c(OC2OC(C(=O)O)C(O)C(O)C2O)c1 (stereo not shown) [PCA-3-glucuronide] | µM·h | 0.06
COC(=O)c1ccc(O)c(O)c1 [Methyl-3,4-dihydroxybenzoate] | µM·h | 0.171

====

assay: Faecal recovery after 500 mg oral bolus of 13C5-C3G; format: in vivo, humans; conditions: faeces, 6–24 h; 500 mg oral 13C5-C3G; mean ± SEM
Marks after values point to notes of the source that are not given here.
Each record here notes measured Recovery 6–24 h.

COMPOUND | Recovery 6–24 h
O=Cc1ccc(O)c(O)c1 [3,4-Dihydroxybenzaldehyde] | 3.4 ± 3.8 ^h μg
COc1ccc(C(=O)O)cc1OS(=O)(=O)O [IsoVA-3-sulfate] | 0.6 ± 0.3 ^h μg
O=Cc1c(O)cc(O)cc1O [Phloroglucinaldehyde] | 2.1 ± 1.3 ^e μg
O=C(O)Cc1ccc(O)cc1 [4-Hydroxyphenylacetic acid] | 7.3 ^b μg
O=C(O)Cc1ccc(O)c(O)c1 [3,4-Dihydroxyphenylacetic acid] | 10.1 ± 4.0 ^e μg
O=C(O)/C=C/c1ccc(O)c(O)c1 [Caffeic acid] | 25.2 ^b μg
O=C(O)c1ccc(OC2OC(C(=O)O)C(O)C(O)C2O)cc1 (centres unmarked) [Benzoic acid-4-glucuronide] | 6.8 ± 3.0 ^c μg
COc1ccc(C(=O)O)cc1OC1OC(C(=O)O)C(O)C(O)C1O (centres unmarked) [IsoVA-3-glucuronide] | 1.3 ^b μg
O=Cc1ccc(O)cc1 [4-Hydroxybenzaldehyde] | 0.8 ± 0.8 ^h μg
OCC1OC(Oc2cc3c(O)cc(O)cc3[o+]c2-c2ccc(O)c(O)c2)C(O)C(O)C1O (centres unmarked) [Cyanidin-3-glucoside, 6,8,10,3′,5′-^13C5-cyanidin-3-glucoside] | 70.0 ^b μg
COc1cc(/C=C/C(=O)O)ccc1O [A-ring-derived ferulic acid] | 469.7 µg
COc1ccc(C(=O)O)c(O)c1 [2-Hydroxy-4-methoxybenzoic acid] | 1.4 ^b μg
O=C(O)c1ccc(O)c(O)c1 [Protocatechuic acid (PCA), Protocatechuic acid] | 360.9 ± 278.1 ^c μg
O=C(O)CNC(=O)c1ccccc1 [Hippuric acid] | 12.0 ± 11.4 ^g μg
COc1ccc(C=O)cc1 [4-Methoxybenzaldehyde] | 20.7 ^b μg
COc1cc(C(=O)O)ccc1O [Vanillic acid (VA), Vanillic acid] | 54.7 ± 1.6 ^h μg
O=C(O)c1ccc(OS(=O)(=O)O)c(O)c1 [PCA-4-sulfate] | 23.0 ± 18.1 ^g μg
COC(=O)c1ccc(O)c(O)c1 [Methyl-3,4-dihydroxybenzoate] | 166.6 ± 100.6 ^g μg
COc1cc(C(=O)O)ccc1OC1OC(C(=O)O)C(O)C(O)C1O (centres unmarked) [VA-4-glucuronide] | 3.3 ^b μg
O=C(O)c1ccc(OC2OC(C(=O)O)C(O)C(O)C2O)c(O)c1 (centres unmarked) [PCA-4-glucuronide] | 16.1 ± 17.5 µg
COC(=O)c1ccc(O)c(OC)c1 [Methyl vanillate] | 35.1 ^b μg
O=C(O)c1ccc(O)c(OC2OC(C(=O)O)C(O)C(O)C2O)c1 (centres unmarked) [PCA-3-glucuronide] | 22.9 ± 22.0 ^g μg
COc1ccc(C(=O)O)cc1O [IsoVA] | 11.0 ^b μg
